Recorded values, source paper PMC4894940.

Target: the molecule itself
Experiment: MST; label-free MST; 750 nM tryptophane-containing target peptide in PBS pH 7.5, 1 % DMSO, 0.1 % Pluronic, unlabeled ligand peptide varied from 3 nM to 100 µM, 25 °C, Monolith NT.labelfree; monomer to dimer
measured_attribute: Kd (µM)
Write it as a number; the unit µM goes unstated.

Entry RSQRVDTLLHHMLGDEL (The two copies are written as one molecule; also called WT peptide; wild type peptide; source: synthetic peptide (Peptide Speciality Laboratories GmbH); not shown: AAWW (short linker and two tryptophans; only on the target copy held at 750 nM), C-terminal, kept) [Synthetic wild type CTH peptide (consensus C-terminal helix of TPC1, residues 707-723)] ; Kd = 3.85
